Source of measurements: ChEMBL document CHEMBL1909046

experiment: DRUGMATRIX: Calcium Channel Type L, Benzothiazepine radioligand binding (ligand: [3H] Diltiazem); type: cell membranes, Rattus norvegicus, Wistar, Brain, Membrane; conditions: Not Active = under 50% inhibition at 10 µM
Measured Parameter: IC50

Worked set:
ClC1=C(Cl)[C@]2(Cl)[C@@H]3[C@@H]4C[C@@H]([C@H]5O[C@@H]45)[C@@H]3[C@@]1(Cl)C2(Cl)Cl    Not Active
O=C(O)CCc1nc(-c2ccccc2)c(-c2ccccc2)o1    Not Active
CCN(CC)N=O    Not Active
O=C(Nc1ccc(Cl)c(Cl)c1)c1cc(Cl)cc(Cl)c1O [3,3',4',5-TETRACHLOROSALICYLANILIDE]    Not Active

Value of IC50 reported for the compound OC[C@H]1O[C@@H]2O[C@H]3[C@H](O)[C@@H](O)[C@@H](O[C@H]4[C@H](O)[C@@H](O)[C@@H](O[C@H]5[C@H](O)[C@@H](O)[C@@H](O[C@H]6[C@H](O)[C@@H](O)[C@@H](O[C@H]7[C@H](O)[C@@H](O)[C@@H](O[C@H]1[C@H](O)[C@H]2O)O[C@@H]7CO)O[C@@H]6CO)O[C@@H]5CO)O[C@@H]4CO)O[C@@H]3CO is Not Active

Value of IC50 reported for the compound Cc1nnc(NS(=O)(=O)c2ccc(N)cc2)s1 is Not Active

Value of IC50 reported for the compound C[C@H]1C[C@H]2[C@@H]3CCC4=CC(=O)C=C[C@]4(C)[C@@]3(F)[C@@H](O)C[C@]2(C)[C@@]1(O)C(=O)CO is Not Active

Value of IC50 reported for the compound COc1ccc(C[C@H](N)C(=O)N[C@H]2[C@@H](O)[C@H](n3cnc4c(N(C)C)ncnc43)O[C@@H]2CO)cc1 is Not Active

Value of IC50 reported for the compound C[N+](C)(C)CCOP(=O)([O-])OC[C@H](O)CO is Not Active

Value of IC50 reported for the compound CC1(COc2ccc(CC3SC(=O)NC3=O)cc2)CCCCC1 (stereo unspecified) is Not Active

Value of IC50 reported for the compound O=C1c2ccccc2C(=O)C1c1ccccc1 is Not Active

Value of IC50 reported for the compound Cc1cc(C(C)(C)C)c(O)c(C)c1CC1=NCCN1 is Not Active

Value of IC50 reported for the compound CC(C)(C#N)c1cc(Cn2cncn2)cc(C(C)(C)C#N)c1 is Not Active

Value of IC50 reported for the compound Cc1cccc(C)c1NC(=O)C(C)N (stereo unspecified) [TOCAINIDE] is Not Active

Value of IC50 reported for the compound O=C(c1ccccc1)c1ccc2n1CCC2C(=O)O (stereo unspecified) is Not Active

Value of IC50 reported for the compound O=C(O)COC(=O)Cc1ccccc1Nc1c(Cl)cccc1Cl is Not Active
